Target: T1, CD70 on cells (CHO-CD70, JVM-3, U266, Raji, THP-1, T cells) (human, UniProt P32970 1-193)
T1 construct: whole, on cells; also called cell-surface CD70
T1 sequence (looked up): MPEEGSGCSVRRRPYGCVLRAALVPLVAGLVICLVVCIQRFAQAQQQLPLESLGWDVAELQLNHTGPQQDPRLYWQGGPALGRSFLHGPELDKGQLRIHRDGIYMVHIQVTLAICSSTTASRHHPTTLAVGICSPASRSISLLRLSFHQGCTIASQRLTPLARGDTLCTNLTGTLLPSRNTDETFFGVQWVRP
Test: binding to CD70-expressing CHO cells with and without CD27-Fc
Measure name: binding result

Binder	Assay result
R3aP9D10 VHH (VHH, tested as VHH-His) VHH: QVQLQESGGGLVQAGGSLRLSCAAPGFTFDAYAIGWFRQAPGKEREGVICLSPSDGSTYYADSVKGRFTISSDNAKNTVYLQMNSLKPEDTAVYYCATPSWCSLKADFGSWGQGTQVTVSS	binds
R3P5A1 VHH (VHH, tested as VHH-His) VHH: QVQLQESGGGLVQPGGSLRLSCTASGSIFSATRMEWYRQAPGKQRELVAIVTSGGRTNYADSVNGRFTISRDNAKNTLYLQMNNLKPEDTAVYYCKFERYDYVNYWGRGTQVTVSS	binds
R2P14A12 VHH (VHH, tested as VHH-His) VHH: QVQLQESGGGLVQPGGSLRLSCVASGFTLDRYAVGWFRQAPGKELEGVSCISSSGDIIKYADSAKGRFTIARDNAKNTAYLQMNSLKPEDTAVYYCTAADPKDDCSVPGYYGLNYWGKGTQVTVSS	binds
R3aP4D6 VHH (VHH) VHH: QVQLQESGGGLVQAGGSLRLSCAASKSIIRDNVMAWHRQAPGKQRELVAIINTGGSANVDDSVKGRFTISRDNAKNMVYLQMNNLKPEDTAVYYCNVYYRDLWGQGTQVTVSS	binds
R3P15F6 VHH (VHH) VHH: QVQLQESGGGLVQPGGSLRLSCVASGFTLDKYAIGWFRQAPGKELEGVSCITSSSGVVKYADSVKGRFIISRDNTNNRAFLQMSSLKPEDTAVYYCAAAGPPDDCSVPGYYGLNYWGKGTQVTVSS	binds
R3P3H12 VHH (VHH, tested as VHH-His) VHH: QVQLQESGGGLVQTGGSLRLSCTASGSIFDIVRGSWYRQAPGNQRELVAIITSGGATNYADSVAGRFTISRDSAWKALYLQMNSLKPEDTAVYFCNMESVRYRNYWGQGTQVTVSS	binds
